tested on: DIV17; experiment: qHTS profiling for inhibitors of Plasmodium falciparum proliferation (AID 504749); further: nearly all actives have a fitted effect of over 60% in size; conditions: P. falciparum in erythrocytes, SYBR Green DNA, 72 h; series mostly up to 28.7 µM
Inconclusive results are not listed. The source made the active and inactive calls. The call rests on the fitted dose curve; in most records, active means well fitted inhibition curve with a large enough effect; inconclusive means small, poorly fitted or top-dose-only effect; inactive means flat fitted curve, though single readings scatter.
Reply using exactly one outcome from active, inactive

Sample answers from the record:
compound=NC[C@H](O)c1ccc(O)c(O)c1 labelvalue=inactive
compound="NCCCC(N)(C(=O)O)C(F)F (stereo not drawn)" labelvalue=inactive

Outcome logged for O=C1CCc2cc(OCCCCc3nnnn3C3CCCCC3)ccc2N1 in this assay:
inactive

Outcome logged for Nc1ccc(S(=O)(=O)Nc2ccnn2-c2ccccc2)cc1 in this assay:
inactive

Outcome logged for Cc1[nH]c(=O)c(C#N)cc1-c1ccc2nccn2c1 in this assay:
inactive

Outcome logged for Cc1ccccc1C(OCCN(C)C)c1ccccc1 (stereo not drawn) in this assay:
active

Outcome logged for CNC[C@H](O)c1cccc(O)c1 in this assay:
inactive

Outcome logged for CCCCNc1cc(C(=O)O)cc(S(N)(=O)=O)c1Oc1ccccc1 in this assay:
inactive

Outcome logged for CC(=O)Oc1ccccc1C(=O)O in this assay:
inactive

Outcome logged for NCCc1ccc(O)c(O)c1 in this assay:
inactive

Outcome logged for NS(=O)(=O)c1cc2c(cc1Cl)NC=NS2(=O)=O in this assay:
inactive

====

assay: qHTS for identification of novel therapeutic agents for treatment of microphthalmiaassociated transcription factor (MiT) renal cell carcinoma (RCC) (AID 1963991); conditions: TFE3-RCC viability, CellTiter-Glo, 48 h; measured here: UOK145 Z-AUC; stronger effect = lower value;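 further: curves scaled with 100% = DMSO viability and 0% = empty wells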
Results filed as inconclusive are left out.
Please assign Not satisfied whenever z-score is at or above 0.3, and Satisfied whenever it is below.

Sample answers from the record:
molecule=NC(=O)c1cnccn1 labelvalue="Not satisfied"
molecule=OCCn1cc(-c2cnc3nnn(Cc4ccc5ncccc5c4)c3n2)cn1 labelvalue="Not satisfied"
molecule=Cc1c(CN2CCN(C(=O)C(C)C)CC2)sc2c(N3CCOCC3)nc(-c3cnc(N)nc3)nc12 labelvalue=Satisfied
molecule=Oc1cccc(-c2nc(N3CCOCC3)c3oc4ncccc4c3n2)c1 labelvalue=Satisfied
molecule=CCOc1cc(C=C2C(=O)N(c3ccccc3)N=C2C)cc(Cl)c1OCC(=O)OC labelvalue=Satisfied

z-score strictly < 0.3 for this molecule? CC(C)(C)NCC(O)c1ccc(O)c(CO)c1 (centres undefined)
Not satisfied

====

experiment: qHTS of pediatric cancer cell lines to identify multiple opportunities for drug repurposing: Primary screen for SK-N-MC cells (AID 1347093); conditions: SK-N-MC viability, CellTiter-Glo luminescence, 48 h; series mostly up to 46 µM; further: potency means the concentration at half of the fitted maximal effect
Results filed as inconclusive are left out. Calls of active or inactive are those of the source. Calls come from the whole dose curve; as a rule, active = well fitted cell-killing curve with a large enough effect; inconclusive = small, poorly fitted or top-dose-only effect; inactive = no such curve, though single readings can be large or run the other way.
Parameter: Potency. Scope: all listed entries.

Study these solved cases before continuing.
structuresmiles=O=C(C1CC1)N1CC[C@@H](Cn2c(-c3ccc(-c4ccc5occc5c4)cc3)nc3cnccc32)C1 measvalue="18.7 µM (active)"
structuresmiles=C[C@]1(c2nc3c(C(N)=O)cccc3[nH]2)CCCN1 measvalue="1.18 µM (active)"

Fill blank: measured Potency of the molecule CC(C)OC(=O)C1=CN(C(=O)c2ccc(F)c(F)c2)CC(C)(C)c2c1[nH]c1ccccc21 is ____.
26.4 µM (active)

====

experiment: Quantitative High-Throughput drug screen in 47 multiple myeloma cell lines against the NCATS MIPE library collection: Delta47_JCRB cell viability assay (AID 1918925; further: nearly all actives have a fitted effect of over 45% in size); details: Delta47 myeloma viability, CellTiter-Glo ATP, 48 h; series mostly up to 45.8 µM
Records with an inconclusive call do not appear. Activity calls are given as the source filed them. Calls come from the whole dose curve; as a rule, active = well fitted cell-killing curve with a large enough effect; inconclusive = small, poorly fitted or top-dose-only effect, or effect the other way; inactive = no such curve, though single readings can be large or run the other way.
Reply using exactly one outcome from Yes = active, No = inactive

compound=COc1ccc2c3n(c(=NC(=O)c4cccnc4)nc2c1OC)CCN3 labelvalue=Yes
compound=CCc1cncnc1N1CCN(Cc2nc3ccc(C(F)(F)F)cc3[nH]2)CC1 labelvalue=Yes
compound=CCOc1ccc(Cc2cc([C@@H]3O[C@H](CO)[C@@H](O)[C@H](O)[C@@H]3O)ccc2Cl)cc1 labelvalue=No
compound=Cc1cccc(-c2nn(C(=S)Nc3ccccc3)cc2-c2ccnc3ccccc23)n1 labelvalue=Yes
compound=CCOc1cc(C(=O)Nc2ccc(Cl)c(-c3nc4ccccc4[nH]3)c2)cc(OCC)c1OCC labelvalue=Yes

Outcome logged for CC(C)OC(=O)C1=CN(C(=O)c2ccc(F)c(F)c2)CC(C)(C)c2c1[nH]c1ccccc21 in this assay:
No

Outcome logged for CC[C@H](Nc1ncnc2nc[nH]c12)c1nc2cccc(F)c2c(=O)n1-c1ccccc1 in this assay:
Yes

Outcome logged for COc1ccccc1[C@H](c1cccc2ccccc12)[C@@](C)(C#N)C(=O)N1CCC(c2cccc(C(F)(F)F)c2)CC1 in this assay:
Yes

Outcome logged for O=c1n(CCCN2CCN(c3cccc(Cl)c3)CC2)nc2ccccn12 in this assay:
No

Outcome logged for CCCS(=O)(=O)Nc1ccc(F)c(C(=O)c2c[nH]c3ncc(-c4ccc(Cl)cc4)cc23)c1F in this assay:
Yes

Outcome logged for CN(C)c1ccc(C2Nc3ccc4ccccc4c3C3=C2C(=O)CC(C)(C)C3)cc1Br (configuration not stated) in this assay:
Yes

Outcome logged for COc1ccc(COc2cc3oc(=O)c4cc(C(C)O)ccc4c3cc2OC)cc1 (configuration not stated) in this assay:
Yes

====

target: Methanococcus maripaludis chaperonin (MmCpn) (UniProt Q6LX38); assay: High-Throughput Screening for Modulators of Cytosolic Chaperonin Activity: MmCpn Primary Screen (AID 488978); settings: Purified MmCpn ATPase activity, ADP HTRF detection, 10 min; series mostly up to 76.9 µM;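 further: 50 nM MmCpn enzyme hydrolysing 30 µM ATP at 37 °C; 0% is about no effect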
Calls of active or inactive are those of the source. Calls come from the whole dose curve; as a rule, active = well fitted curve in the direction sought with a large enough effect; inconclusive = small, poorly fitted or top-dose-only effect, or another doubt; inactive = no such curve, though single readings can be large or run the other way.
attributeMeasured: outcome

compound="CC(C)(C)NCC(O)c1ccc(O)c(CO)c1 (stereo not drawn)" attributemeasured=outcome measvalue=inactive
compound=Cc1[nH]c(=O)c(C#N)cc1-c1ccc2nccn2c1 attributemeasured=outcome measvalue=inactive
compound=CC(C)C[C@H](NC(=O)[C@@H](O)[C@H](N)Cc1ccccc1)C(=O)O attributemeasured=outcome measvalue=inactive
compound=Nc1ncnc2nc(-c3ccc(N4CCOCC4)nc3)cc(-c3cccc(Br)c3)c12 attributemeasured=outcome measvalue=inactive
compound=NS(=O)(=O)c1cc2c(cc1Cl)NC=NS2(=O)=O attributemeasured=outcome measvalue=inactive

Fill blank: measured outcome of the compound O=NN(CCCl)C(=O)NCCCl is ____.
inactive

Fill blank: measured outcome of the compound Cc1oncc1C(=O)Nc1ccc(C(F)(F)F)cc1 is ____.
inactive

Fill blank: measured outcome of the compound NNCCc1ccccc1 is ____.
inactive

====

test: qHTS of pediatric cancer cell lines to identify multiple opportunities for drug repurposing: Primary screen for NB-EBc1 cells (AID 1347095); settings: NB-EBc1 neuroblastoma viability, CellTiter-Glo luminescence, 48 h; series mostly up to 46 µM
Inconclusive results are not listed. The source made the active and inactive calls. Calls follow the shape of the dose curve; as a rule, active = well fitted cell-killing curve with a large enough effect; inconclusive = small, poorly fitted or top-dose-only effect; inactive = no such curve, though single readings can be large or run the other way.
Reply using exactly one outcome from true for active, false for inactive

Sample answers from the record:
compound=CCCc1nc2c(C)cc(-c3nc4ccccc4n3C)cc2n1Cc1ccc(-c2ccccc2C(=O)O)cc1 labelvalue=false
compound="CCc1ccc(CCOc2ccc(CC3SC(=O)NC3=O)cc2)nc1 (stereo not drawn)" labelvalue=false

Outcome logged for Cc1cnc(Nc2ccc(OCCN3CCCC3)cc2)nc1Nc1cccc(S(=O)(=O)NC(C)(C)C)c1 in this assay:
false

Outcome logged for CCCc1nn(C)c2c(=O)[nH]c(-c3cc(S(=O)(=O)N4CCN(C)CC4)ccc3OCC)nc12 in this assay:
false

Outcome logged for COc1ccc(-c2ccc3c(N4CCOC[C@H]4C)nc(N4CCOC[C@H]4C)nc3n2)cc1CO in this assay:
true

Outcome logged for CC1(C)CNc2cc(NC(=O)c3cccnc3NCc3ccncc3)ccc21 in this assay:
true

Outcome logged for Nc1cccc(S(=O)(=O)N2CCCN(S(=O)(=O)c3ccc4c(c3)OCCO4)CC2)c1 in this assay:
false

Outcome logged for COc1cc(Nc2ncc3c(n2)-c2ccc(Cl)cc2C(c2c(F)cccc2OC)=NC3)ccc1C(=O)O in this assay:
true

Outcome logged for COc1cc(F)c(F)c(Nc2ccc(I)cc2F)c1NS(=O)(=O)C1(C[C@H](O)CO)CC1 in this assay:
false

Outcome logged for COc1ccc(-c2ccc3c(N4CCOCC4)nc(N4C[C@@H](C)O[C@@H](C)C4)nc3n2)cc1CO in this assay:
true

Outcome logged for COCCNCCCn1c(C(=O)CF)c(-c2ccc(C)cc2)c2c(N)ncnc21 in this assay:
false

Outcome logged for CCC(C)n1ncn(-c2ccc(N3CCN(c4ccc(OC[C@H]5CO[C@](Cn6cncn6)(c6ccc(Cl)cc6Cl)O5)cc4)CC3)cc2)c1=O (stereo partly drawn) in this assay:
true

Outcome logged for CS(=O)(=O)Oc1ccc2c(NC(N)=O)c(C(=O)c3ccc(Cl)cc3Cl)oc2c1 in this assay:
true

====

assay: qHTS drug screen for cell cycle checkpoint inhibitors in PARPi-resistant BRCA-mutant ovarian cancer cell lines. (AID 1963452); settings: PEO1/OlaR viability, CellTiter-Glo luminescence, 96 h; stronger effect = lower value
Parameter: Z-AUC. Scope: all listed entries.
The response must contain the number and no unit.

Study these solved cases before continuing.
compound="CCN(CC)CCCC(C)Nc1ccnc2cc(Cl)ccc12 (stereo unspecified)" attributemeasured=Z-AUC measvalue=0.106
compound=CCCn1c(=O)c2[nH]c(C34CC5CC3C[C@@H](C5)C4)nc2n(CCC)c1=O attributemeasured=Z-AUC measvalue=0.471
compound=NNCCc1ccccc1 attributemeasured=Z-AUC measvalue=0.52
compound=NC(=O)c1ccc(-c2nc(-c3ccc4c(c3)OCO4)c(-c3ccccn3)[nH]2)cc1 attributemeasured=Z-AUC measvalue=0.53
compound=CN(C)C(=O)c1ccc(S(=O)(=O)c2ccc(NC(=O)[C@@](C)(O)C(F)(F)F)c(Cl)c2)cc1 attributemeasured=Z-AUC measvalue=0.422

Fill blank: measured Z-AUC of the compound Cc1n[nH]c(C)c1Cc1sc2c(c1C(=O)N1C[C@H](O)CO1)c(=O)n(C)c(=O)n2CC(C)C is ____.
-0.106

Fill blank: measured Z-AUC of the compound NC(=O)c1ccc(-c2nc(-c3ccc4c(c3)OCCO4)c(-c3ccccn3)[nH]2)cc1 is ____.
0.559

Fill blank: measured Z-AUC of the compound CCCS(=O)(=O)Nc1ccc(F)c(C(=O)c2c[nH]c3ncc(-c4ccc(Cl)cc4)cc23)c1F is ____.
0.0673

Fill blank: measured Z-AUC of the compound COc1cccc2cc(-c3nc(C4CCC(C(=O)O)CC4)n4ncnc(N)c34)[nH]c12 (stereo unspecified) is ____.
-0.482

Fill blank: measured Z-AUC of the compound CNC(=O)c1ccccc1Sc1ccc2c(/C=C/c3ccccn3)n[nH]c2c1 is ____.
0.578

Fill blank: measured Z-AUC of the compound C[C@@H]1CN(Cc2ccc(F)cc2)[C@@H](C)CN1C(=O)c1cc2c(C(=O)C(=O)N(C)C)cn(C)c2cc1Cl is ____.
0.142
